- assayed-system: human 5-HT1A receptor (Homo sapiens, UniProt P08908)
- Construct: expressed in transfected cells; host or cells: CHO cells (stably transfected)
- Sequence (P08908 whole entry): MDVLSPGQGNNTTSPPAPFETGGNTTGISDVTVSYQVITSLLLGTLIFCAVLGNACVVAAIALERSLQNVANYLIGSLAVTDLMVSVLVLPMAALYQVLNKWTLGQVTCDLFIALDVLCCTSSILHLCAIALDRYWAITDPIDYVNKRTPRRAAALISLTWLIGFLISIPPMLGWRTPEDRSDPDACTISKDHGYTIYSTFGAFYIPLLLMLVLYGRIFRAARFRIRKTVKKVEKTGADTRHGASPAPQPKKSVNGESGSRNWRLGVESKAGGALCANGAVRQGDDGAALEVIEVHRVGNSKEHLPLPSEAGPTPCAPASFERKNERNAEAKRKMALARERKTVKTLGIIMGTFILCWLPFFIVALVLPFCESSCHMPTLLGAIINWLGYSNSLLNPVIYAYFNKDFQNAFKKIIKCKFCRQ
- assay-overview: Displacement of [3H] 8-OHDPAT from the 5-HT1A receptor in transfected CHO cells
- Type: binding
- assay-setup: displacement of [3H] 8-OHDPAT; CHO cells stably transfected with the human 5-HT1A receptor; read-out: 5-HT1A Affinity (IC50)
experimental-readout: IC50 (nM)

[
  {
    "chemical-smiles": "COc1cccc(N2CCN(C[C@H](CC3CCCCC3)NC(=O)C3CCCCC3)CC2)n1",
    "assayed-system": "human 5-HT1A receptor (Homo sapiens, UniProt P08908)",
    "quantitative-result": 4.14
  },
  {
    "chemical-smiles": "CN(C(=O)C1CCCCC1)[C@H](CC1CCCCC1)CN1CCN(c2cccc3[nH]ccc23)CC1",
    "assayed-system": "human 5-HT1A receptor (Homo sapiens, UniProt P08908)",
    "quantitative-result": 8.84
  },
  {
    "chemical-smiles": "O=C(N[C@H](CC1CCCCC1)CN1CCN(c2nccc3ccccc23)CC1)C1CCCCC1",
    "assayed-system": "human 5-HT1A receptor (Homo sapiens, UniProt P08908)",
    "quantitative-result": 1.69
  },
  {
    "chemical-smiles": "COc1ccccc1C1CCN(C[C@@H](CC2CCCCC2)NC(=O)C2(C)CCCCC2)CC1",
    "assayed-system": "human 5-HT1A receptor (Homo sapiens, UniProt P08908)",
    "quantitative-result": 5.97
  },
  {
    "chemical-smiles": "O=C(N[C@H](CC1CCCCC1)CN1CCN(c2ncccn2)CC1)C1CCC1",
    "assayed-system": "human 5-HT1A receptor (Homo sapiens, UniProt P08908)",
    "quantitative-result": 2.4
  },
  {
    "chemical-smiles": "COc1ccccc1N1CCN(C[C@@H](CC2CCCCC2)NC=O)CC1",
    "assayed-system": "human 5-HT1A receptor (Homo sapiens, UniProt P08908)",
    "quantitative-result": 1.49
  },
  {
    "chemical-smiles": "CN(C(=O)C1(C)CCCCC1)[C@H](CC1CCCCC1)CN1CCN(c2cccc3[nH]ccc23)CC1",
    "assayed-system": "human 5-HT1A receptor (Homo sapiens, UniProt P08908)",
    "quantitative-result": 32.7
  },
  {
    "chemical-smiles": "O=C(N[C@H](CC1CCCCC1)CN1CCN(c2nc3ccccc3s2)CC1)C1CCCCC1",
    "assayed-system": "human 5-HT1A receptor (Homo sapiens, UniProt P08908)",
    "quantitative-result": 2.96
  }
]

The measurements presented in this section are drawn from patent US6518272B2.
